System: NCI-H358
Assay: relative viability (nuclei count vs DMSO), 5 days (fraction); higher = more cells survive
Settings: first compound 0.1265 µM
measurement.label: relative viability

{"compound": "C[C@@H]1CN(CC(=O)Nc2ccc3c(c2)Cc2cccc(-c4cc(=O)cc(N5CCOCC5)o4)c2S3)C[C@H](C)O1 + Nc1ncn([C@H]2C[C@H](O)[C@@H](CO)O2)c(=O)n1 [Decitabine] (partner 2 µM)", "measurement.label": "relative viability", "result": 0.204}
{"compound": "C[C@@H]1CN(CC(=O)Nc2ccc3c(c2)Cc2cccc(-c4cc(=O)cc(N5CCOCC5)o4)c2S3)C[C@H](C)O1 + CCNC(=O)c1noc(-c2cc(C(C)C)c(O)cc2O)c1-c1ccc(CN2CCOCC2)cc1 [Luminespib] (partner 0.01 µM)", "measurement.label": "relative viability", "result": 0.308}
{"compound": "C[C@@H]1CN(CC(=O)Nc2ccc3c(c2)Cc2cccc(-c4cc(=O)cc(N5CCOCC5)o4)c2S3)C[C@H](C)O1 + Cc1cc(Nc2cc(N3CCN(C)CC3)nc(Sc3ccc(NC(=O)C4CC4)cc3)n2)n[nH]1 [Tozasertib] (partner 0.1 µM)", "measurement.label": "relative viability", "result": 0.0927}
{"compound": "COc1cc(N2CCC(C(N)=O)CC2)ccc1Nc1nc(N)c(Cl)c(Nc2ccccc2S(=O)(=O)C(C)C)n1 [HG-5-88-01] + CS(=O)(=O)N1CCN(Cc2cc3nc(-c4cccc5[nH]ncc45)nc(N4CCOCC4)c3s2)CC1 [Pictilisib] (partner 1 µM)", "measurement.label": "relative viability", "result": 0.384}

###

Each entry below carries its reported relative viability.
System: A-427
Assay: relative viability (nuclei count vs DMSO), 5 days (fraction); higher = more cells survive
Settings: first compound 0.3162 µM

{"compound": "CC(C)Oc1cc(Nc2nc(N[C@@H](C)c3ccc(F)cn3)ncc2Cl)n[nH]1 [AZ23] + COc1cc2c(Oc3ccc(NC(=O)C4(C(=O)Nc5ccc(F)cc5)CC4)cc3F)ccnc2cc1OCCCN1CCOCC1 [Foretinib] (partner 0.25 µM)", "relative viability": 1.07}
{"compound": "CC(C)Oc1cc(Nc2nc(N[C@@H](C)c3ccc(F)cn3)ncc2Cl)n[nH]1 [AZ23] + Nc1ncn([C@H]2C[C@H](O)[C@@H](CO)O2)c(=O)n1 [Decitabine] (partner 2 µM)", "relative viability": 0.591}
{"compound": "CC(C)Oc1cc(Nc2nc(N[C@@H](C)c3ccc(F)cn3)ncc2Cl)n[nH]1 [AZ23] + N=C(N)NC(=N)NCCc1ccccc1 [Phenformin] (partner 250 µM)", "relative viability": 0.281}

###

Test system: NCI-H2126
Test: relative viability (nuclei count vs DMSO), 5 days (fraction); higher = more cells survive
Settings: first compound 4 µM

{"molecule": "C[C@@H]1CN(CC(=O)Nc2ccc3c(c2)Cc2cccc(-c4cc(=O)cc(N5CCOCC5)o4)c2S3)C[C@H](C)O1 + CC(=O)Nc1cccc(-n2c(=O)n(C3CC3)c(=O)c3c(Nc4ccc(I)cc4F)n(C)c(=O)c(C)c32)c1 [Trametinib] (partner 0.02 µM)", "system.tested": "NCI-H2126", "relative viability": 0.557}
{"molecule": "Clc1ccc(Nc2nnc(Cc3ccncc3)c3ccccc23)cc1 [Vatalanib] + C[C@@H](Oc1cc(-c2cnn(C3CCNCC3)c2)cnc1N)c1c(Cl)ccc(F)c1Cl [Crizotinib] (partner 1 µM)", "system.tested": "NCI-H2126", "relative viability": 0.992}
{"molecule": "COc1cc(N2CCC(C(N)=O)CC2)ccc1Nc1nc(N)c(Cl)c(Nc2ccccc2S(=O)(=O)C(C)C)n1 [HG-5-88-01] + C[C@]1(O)C[C@@H](c2nc(-c3ccc4ccc(-c5ccccc5)nc4c3)c3c(N)nccn32)C1 [Linsitinib] (partner 1 µM)", "system.tested": "NCI-H2126", "relative viability": 0.716}
{"molecule": "COc1cc(N2CCC(C(N)=O)CC2)ccc1Nc1nc(N)c(Cl)c(Nc2ccccc2S(=O)(=O)C(C)C)n1 [HG-5-88-01] + C[C@@H](Oc1cc(-c2cnn(C3CCNCC3)c2)cnc1N)c1c(Cl)ccc(F)c1Cl [Crizotinib] (partner 1 µM)", "system.tested": "NCI-H2126", "relative viability": 1.01}
